Measured values drawn from ChEMBL document CHEMBL5331058 for this set.

Biological target: Butyrylcholinesterase (Rattus norvegicus, UniProt Q9JKC1)
Sequence (Q9JKC1 whole entry): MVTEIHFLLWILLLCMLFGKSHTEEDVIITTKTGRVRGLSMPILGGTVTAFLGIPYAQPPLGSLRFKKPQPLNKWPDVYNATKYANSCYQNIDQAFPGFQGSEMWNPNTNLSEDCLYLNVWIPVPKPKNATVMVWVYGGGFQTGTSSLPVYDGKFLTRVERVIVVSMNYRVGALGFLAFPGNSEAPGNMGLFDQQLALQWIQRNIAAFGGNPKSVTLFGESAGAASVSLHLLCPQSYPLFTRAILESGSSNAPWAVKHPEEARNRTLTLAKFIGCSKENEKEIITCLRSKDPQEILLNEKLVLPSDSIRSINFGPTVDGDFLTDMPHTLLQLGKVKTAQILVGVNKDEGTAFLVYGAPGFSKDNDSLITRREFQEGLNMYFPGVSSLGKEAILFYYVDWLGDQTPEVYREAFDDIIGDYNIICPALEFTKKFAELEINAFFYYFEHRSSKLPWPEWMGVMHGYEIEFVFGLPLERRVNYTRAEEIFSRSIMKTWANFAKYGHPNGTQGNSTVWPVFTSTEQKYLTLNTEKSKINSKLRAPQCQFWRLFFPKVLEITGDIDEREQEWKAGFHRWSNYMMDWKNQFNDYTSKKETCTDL
Assay: Inhibition of rat serum homogenate BuChE preincubated for 5 mins followed by compound addition and measured after 15 mins by Ellman's method
Measure Name: IC50 (µM)
Your answer should be a plain number; it is taken to be in µM.

Entry under review: CCN(CC)C(=O)Oc1ccc(-c2cc(=O)c3c(O)c(OC)c(OC)cc3o2)cc1 . Reported IC50?
22.1

----------
Biological target: Acetylcholinesterase (Homo sapiens, UniProt P22303)
Sequence (P22303 whole entry): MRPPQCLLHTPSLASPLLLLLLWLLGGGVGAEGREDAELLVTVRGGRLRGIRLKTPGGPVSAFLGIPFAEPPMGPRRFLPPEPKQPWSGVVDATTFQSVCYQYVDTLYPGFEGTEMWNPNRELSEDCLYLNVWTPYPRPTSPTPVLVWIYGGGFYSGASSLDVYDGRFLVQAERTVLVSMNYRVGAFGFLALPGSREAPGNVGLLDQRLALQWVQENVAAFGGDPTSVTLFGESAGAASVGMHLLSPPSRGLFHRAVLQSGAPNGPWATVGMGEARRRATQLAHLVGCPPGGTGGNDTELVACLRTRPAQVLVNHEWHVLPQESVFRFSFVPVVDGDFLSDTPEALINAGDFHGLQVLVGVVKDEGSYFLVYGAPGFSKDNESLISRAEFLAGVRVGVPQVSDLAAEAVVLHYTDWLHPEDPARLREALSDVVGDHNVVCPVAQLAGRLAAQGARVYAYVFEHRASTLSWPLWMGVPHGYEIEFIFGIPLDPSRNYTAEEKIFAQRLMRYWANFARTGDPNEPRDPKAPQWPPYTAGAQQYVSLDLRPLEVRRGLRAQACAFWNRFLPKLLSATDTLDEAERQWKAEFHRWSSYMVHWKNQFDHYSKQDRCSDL
Experiment: Inhibition of human AChE by Ellman's spectrophotometric method
Measure Name: IC50 (µM)
Your answer should be a plain number; it is taken to be in µM.

What reported IC50 corresponds to COc1cc2oc(-c3ccc(NCCNc4c5c(nc6cc(Cl)ccc46)CCCC5)cc3)cc(=O)c2c(OC)c1OC on Acetylcholinesterase (Homo sapiens, UniProt P22303)?
4.73
